- target: recombinant homotrimeric HA, A/swine/Ontario/01911-2/99 H4N6 (Influenza A virus A/swine/Ontario/01911-2/99 (H4N6))
- experiment notes: trimeric HA microarray, transfection set 3
- reported conditions: remark: other sources report otherwise
quantity kind: Trimeric HA Binding RLU (RLU)

binder	quantity kind	recorded number
TCN-532 (5262_H18) (antibody, V domains shown) VH: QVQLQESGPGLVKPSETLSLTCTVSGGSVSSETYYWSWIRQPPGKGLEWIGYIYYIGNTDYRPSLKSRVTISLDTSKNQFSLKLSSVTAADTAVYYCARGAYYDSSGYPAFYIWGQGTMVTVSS VL: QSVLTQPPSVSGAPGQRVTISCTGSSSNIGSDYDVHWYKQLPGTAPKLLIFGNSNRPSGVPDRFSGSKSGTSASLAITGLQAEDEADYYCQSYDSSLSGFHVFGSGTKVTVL	Trimeric HA Binding RLU	29
